# Test system: NCI-H460
# assay overview: Cytotoxicity against human H460 cells after 72 hrs by MTT assay
# Format: cell-based
# test parameters: NCI-H460, 72 h
IC50 by entry:

COc1ccc(C(=O)Nc2ccccc2-c2nnn(-c3ccc(OC)cc3)n2)cc1    > 100 µM
CCCc1ccc(NC(=O)c2ccccc2NC(=O)c2ccccc2[N+](=O)[O-])cc1    > 100 µM
COc1ccc(-n2nnc(-c3ccccc3NC(=O)Nc3ccc([N+](=O)[O-])cc3)n2)cc1    21.7 µM
COc1cccc(-n2nnc(-c3ccccc3NC(=O)Nc3cccc([N+](=O)[O-])c3)n2)c1    > 100 µM
CCCc1ccc(NC(=O)c2ccccc2NC(=O)c2cccc([N+](=O)[O-])c2)cc1    > 100 µM

Per the records, this molecule ( "COc1cccc(-n2nnc(-c3ccccc3NC(=O)Nc3ccc(N=C=S)cc3)n2)c1" ) has IC50 equal to > 100 µM

The recorded IC50 for "COc1cccc(-n2nnc(-c3ccccc3NC(=O)Nc3ccc(NC(C)=O)cc3)n2)c1" is > 100 µM

Lookup result for "CCCc1ccc(NC(=O)c2ccccc2NC(=O)Nc2ccc(Br)cc2)cc1" ; measured IC50: > 100 µM

Value of measured IC50 for the entry "COc1cccc(-n2nnc(-c3ccccc3NC(=O)Nc3ccccc3[N+](=O)[O-])n2)c1" : > 100 µM

###

# System: NCI-H460
# assay overview: Cytotoxicity against human H460 cells after 72 hrs by MTT assay
# Format: cell-based
# test parameters: NCI-H460, 72 h
pIC50: −log10 of the molar value.
readout kind: pIC50

These solved cases illustrate the format of a correct answer.
COc1ccc(NC(=O)Nc2ccccc2-c2nnn(-c3ccc(OC)cc3)n2)cc1    4.28
COc1cccc(-n2nnc(-c3ccccc3NC(=O)c3ccc([N+](=O)[O-])cc3)n2)c1    < 4.00
COc1cccc(-n2nnc(-c3ccccc3NC(=O)c3ccc(N=C=S)cc3)n2)c1    4.35

"COc1cccc(-n2nnc(-c3ccccc3NC(=O)c3ccc(NC(=O)CBr)cc3)n2)c1" has a reported pIC50 of < 4.00

Documented pIC50 of "CCCc1ccc(NC(=O)c2ccccc2NC(=O)Nc2ccc([N+](=O)[O-])cc2)cc1" : < 4.00

Field pIC50 (entry "COc1cccc(-n2nnc(-c3ccccc3NC(=O)Nc3ccc(N)cc3)n2)c1" ) reads < 4.00

Sure, the documented pIC50 for "COc1cccc(-n2nnc(-c3ccccc3NC(=O)Nc3ccc(NC(=O)CBr)cc3)n2)c1" is < 4.00

###

# assay overview: Inhibition of ABCG2 in human H460/MX20 cells assessed as potentiation of mitoxantrone induced antiproliferative activity by measuring mitoxantrone IC50 at 10 uM preincubated for 2 hrs followed by mitoxantrone addition measured after 72 hrs by MTT assay (reference value: 6.161 +/- 0.172 microM)
IC50 values, listed per item
# output: bare number, implied unit nM

Some molecules with recorded IC50:
COc1ccc2c3c([nH]c2c1)[C@H](C=C(C)C)N1C(=O)[C@@H]2CCCN2C(=O)[C@@H]1C3    321
COc1cccc(-n2nnc(-c3ccccc3NC(=O)Nc3ccc(N=C=S)cc3)n2)c1    550

Recorded result, "COc1cccc(-n2nnc(-c3ccccc3NC(=O)Nc3ccc(N=[N+]=[N-])cc3)n2)c1" , IC50: 685

Just for reference, ChEMBL document CHEMBL4043226 is where these values come from.
